testedSystem: T1, human TGFβ3, mature dimeric form (human, UniProt P10600 301-412)
T1 construct: Peprotech, expressed in E. coli; also called TGFb3
T1 sequence: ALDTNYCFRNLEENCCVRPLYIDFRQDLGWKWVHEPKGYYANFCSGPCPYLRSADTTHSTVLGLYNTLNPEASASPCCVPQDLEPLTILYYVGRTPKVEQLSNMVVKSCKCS
methodNotes: BIAcore T200
Kindly supply the reported pKd values for the records listed here.
Numbers only, as −log10 of the molar value.

# example entries with known answers
binder	pKd
h4A11.v1 (antibody, human IgG1, kappa, N297G, V domains shown) VH: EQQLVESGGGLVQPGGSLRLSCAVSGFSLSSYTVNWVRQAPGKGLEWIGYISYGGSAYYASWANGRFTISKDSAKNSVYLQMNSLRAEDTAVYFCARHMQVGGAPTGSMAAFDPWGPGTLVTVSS VL: DAVLTQSPDSLAVSLGERATINCQSSQSVYNNNYLSWFQQKPGQPPKLLIYGASTLTSGVPDRFSGSGSGTDFTLTISSLQAEDVAVYYCAGGYSGSSDKYAFGGGTKVEIKR	10.84
h4A11.v6 (antibody, human IgG1, kappa, N297G, V domains shown) VH: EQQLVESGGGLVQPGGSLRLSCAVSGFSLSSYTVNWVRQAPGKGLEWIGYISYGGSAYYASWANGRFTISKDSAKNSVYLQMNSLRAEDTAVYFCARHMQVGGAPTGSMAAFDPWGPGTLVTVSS VL: DAVLTQTPLSSPVTLGQPASISCQSSQSVYNNNYLSWFQQRPGQPPRLLIYGASTLTSGVPDRFSGSGAGTDFTLKISRVEAEDVGVYYCAGGYSGSSDKYAFGGGTKVEIKR	10.90

Switching to the query record.
**Q:** Tell us which pKd value is on record for h4A11.v3 (antibody, human IgG1, kappa, N297G, V domains shown) VH: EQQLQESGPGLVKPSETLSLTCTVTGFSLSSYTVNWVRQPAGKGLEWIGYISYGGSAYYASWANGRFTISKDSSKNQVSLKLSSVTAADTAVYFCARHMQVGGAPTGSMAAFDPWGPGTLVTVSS VL: DAVLTQSPDSLAVSLGERATINCQSSQSVYNNNYLSWFQQKPGQPPKLLIYGASTLTSGVPDRFSGSGSGTDFTLTISSLQAEDVAVYYCAGGYSGSSDKYAFGGGTKVEIKR
**A:** 10.92
